Procedure Summary: NS1 protein of Zika virus - qHTS assay to identify small molecule inhibitors in human HEK 293 cells (AID 1347053);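 further: plate controls were infected untreated cells for no effect and uninfected cells for full effect; nearly all actives have a fitted effect of over 55% in size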
Measurement Setup: HEK293 ZIKV MR766 infection, NS1 TR-FRET, 24 h; series mostly up to 46.1 µM
Source text: National Center for Advancing Translational Sciences [NCATS] Johns Hopkins University School of Medicine The non-structural 1 (NS1) protein of zika virus is known to associate with the viral replication complex. This cell-based TR-FRET ZIKV NS-1 assay measures the increased NS-1 protein in human HEK 293 cells after a 24-hour Zika virus infection by a TR-FRET assay readout. […]
Inconclusive results are not listed. The source made the active and inactive calls. The call rests on the fitted dose curve; in most records, active means well fitted inhibition curve with a large enough effect; inconclusive means small, poorly fitted or top-dose-only effect; inactive means no such curve, though single readings can be large or run the other way.
Metric: outcome

# Compound, Observed Value
rows = [
    ("Oc1ccc(O)cc1", "inactive"),
    ("Cc1onc(-c2c(Cl)cccc2Cl)c1C(=O)N[C@@H]1C(=O)N2[C@@H]1SC(C)(C)[C@@H]2C(=O)O", "inactive"),
    ("Nc1ccc(C(=O)Nc2ccccc2N)cc1", "inactive"),
    ("CCCCCCCCCCCCCCCCCC(=O)OCC(O)CO (stereo not drawn)", "inactive"),
    ("CCOC(=O)COc1ccc2c(C)c(CCN(CC)CC)c(=O)oc2c1Cl", "inactive"),
    ("COCc1c(C(C)C)nc(C(C)C)c(/C=C/[C@@H](O)C[C@@H](O)CC(=O)O)c1-c1ccc(F)cc1", "inactive"),
    ("COC(=O)CCc1ccc(OCC(O)CNC(C)C)cc1 (stereo not drawn)", "inactive"),
    ("CC(C)(C(=O)c1cccnc1)c1cccnc1", "inactive"),
]

Query :: For the compound shown here, `Nc1cc(Cl)c(NC2=NCCN2)c(Cl)c1` , give the reported outcome.
Result :: inactive

Query :: What about `CC(=O)Oc1ccc(C(c2ccc(OC(C)=O)cc2)c2ccccn2)cc1` ?
Result :: inactive

Query :: What about `CC(=O)c1ccc2c(c1)N(CCCN1CCC(CCO)CC1)c1ccccc1S2` ?
Result :: inactive

Query :: What about `Cc1cccn2c(=O)c(-c3nnn[nH]3)cnc12` ?
Result :: inactive

Query :: What about `CC1(C)O[C@@H]2C[C@H]3[C@@H]4C[C@H](F)C5=CC(=O)C=C[C@]5(C)[C@H]4[C@@H](O)C[C@]3(C)[C@]2(C(=O)CO)O1` ?
Result :: inactive

###

Procedure Summary: qHTS of pediatric cancer cell lines to identify multiple opportunities for drug repurposing: Confirmatory screen for control Hh wild type fibroblast cells (AID 1347121); further: nearly all actives have a fitted effect of over 70% in size
Measurement Setup: viability qHTS; series mostly up to 45.9 µM
Records with an inconclusive call do not appear. Activity calls are given as the source filed them. Calls follow the shape of the dose curve; as a rule, active = well fitted cell-killing curve with a large enough effect; inconclusive = small, poorly fitted or top-dose-only effect, or effect the other way; inactive = flat fitted curve, though single readings scatter. Numbered stars: 1 amine (or outer) side, 2 acyl side, 3 side chain; on linkers, the order of the positions; unused ones are H or OH. Bridge positions count the residues as written; N and C are the ends. Square brackets hold non-standard residues; d marks the D form. Peptide text beside a SMILES is read from it. I, II: the chains in the order shown. Actinocin(9to1) = Cc1c2oc3c(C)ccc(C(=O)[*:1])c3nc-2c(C(=O)[*:2])c(N)c1=O; NMeV = CN[C@H](C(=O)O)C(C)C; Sar = CNCC(=O)O
Response enum: true = active, false = inactive

Study these solved cases before continuing.
# Molecule, Class Label
records = [
    ("C[n+]1c2cc(N)ccc2cc2ccc(N)cc21 (tested in a mixture with another compound)", "true"),
    ("COc1cc(C=C2CCC/C(=C\\c3ccc(O)c(OC)c3)C2=O)ccc1O", "false"),
    ("CCCC(=O)O[C@]1(C(=O)CO)CC[C@H]2[C@@H]3CCC4=CC(=O)CC[C@]4(C)[C@H]3[C@@H](O)C[C@@]21C", "false"),
    ("C[C@]12C=CC(=O)C=C1CC[C@@H]1[C@@H]2[C@@H](O)C[C@@]2(C)[C@H]1CC[C@]2(O)C(=O)CO", "false"),
    ("O=C(CCCN1CCC(O)(c2ccc(Br)cc2)CC1)c1ccc(F)cc1", "false"),
]

Query :: Recorded test call requested for `C[C@@H]1C[C@H]2[C@@H]3CCC4=CC(=O)C=C[C@]4(C)[C@@]3(F)[C@@H](O)C[C@]2(C)[C@H]1C(=O)CO`
Result :: false

Query :: What about Cc1c2oc3c(C)ccc(C(=O)N[C@@H]4C(=O)N[C@H](C(C)C)C(=O)N5CCC[C@H]5C(=O)N(C)CC(=O)N(C)[C@@H](C(C)C)C(=O)O[C@@H]4C)c3nc-2c(C(=O)N[C@@H]2C(=O)N[C@H](C(C)C)C(=O)N3CCC[C@H]3C(=O)N(C)CC(=O)N(C)[C@@H](C(C)C)C(=O)O[C@@H]2C)c(N)c1=O (I: T[dV]P[Sar][NMeV] / II: T[dV]P[Sar][NMeV]; ester I:1-I:C, II:1-II:C; linker I:N-II:N via Actinocin(9to1)) ?
Result :: false

Query :: What about `C[C@]12C=CC(=O)C=C1[C@@H](F)C[C@@H]1[C@@H]2[C@@H](O)C[C@@]2(C)[C@H]1CC[C@]2(O)C(=O)CO` ?
Result :: false

###

System: PA-1
Procedure Summary: Primary qHTS to identify gynecologic anti-cancer compounds using libraries of approved drugs and bioactive compounds (AID 1345084); further: nearly all actives have a fitted effect of over 55% in size
Measurement Setup: Gynecologic cancer cell panel viability, ATPlite luminescence, 48 h; series mostly up to 57.5 µM
Results filed as inconclusive are left out. Active and inactive are the calls of the source. The call rests on the fitted dose curve; in most records, active means well fitted cell-killing curve with a large enough effect; inconclusive means small, poorly fitted or top-dose-only effect, or effect the other way; inactive means flat fitted curve, though single readings scatter.
Response enum: 1 for active, 0 for inactive

Study these solved cases before continuing.
# Compound, Target System, Class Label
measured = [
    ("CC1=C(C(=O)OC(C)C)C(c2cccc([N+](=O)[O-])c2)C(C(=O)OC2CN(C(c3ccccc3)c3ccccc3)C2)=C(N)N1 (centres undefined)", "PA-1", 0),
    ("COCc1c(C(C)C)nc(C(C)C)c(/C=C/[C@@H](O)C[C@@H](O)CC(=O)O)c1-c1ccc(F)cc1", "PA-1", 1),
    ("Cc1cc2c(cc1CC(=O)c1sccc1S(=O)(=O)Nc1onc(C)c1Cl)OCO2", "PA-1", 0),
]

Query :: Recorded test call requested for `COC(=O)[C@@H]1CC2=CC(=O)CC[C@]2(C)[C@@]23O[C@@H]2C[C@@]2(C)[C@@H](CC[C@@]24CCC(=O)O4)[C@H]13`
Result :: 0

###

Procedure Summary: qHTS Assay for Lipid Storage Modulators (AID 1519)
Measurement Setup: Drosophila S3 cells, BODIPY lipid droplet/cell ratio, laser cytometry; measured here: cell count channel max response; cells loaded with oleic acid
Inconclusive results are not listed.
Metric: max response (%)
Answer format: numeric, % implied, no suffix.

# annotated cases, reported max response shown
# Compound, Metric, Unit Name, Observed Value
measured = [
    ("CCN1CCC[C@H]1CNC(=O)c1c(OC)ccc(Br)c1OC", "max response", "%", -13.5),
    ("CC/C(=C(/CC)c1ccc(O)cc1)c1ccc(O)cc1", "max response", "%", 9.58),
    ("Nc1ccc(C(=O)O)cc1", "max response", "%", 13.3),
]

Please find the next compound below.
Query :: For the compound shown here, O=C(OCC(O)CO)c1ccccc1Nc1ccnc2cc(Cl)ccc12 (centres undefined) , give the reported max response.
Result :: 5.57

###

Test system: Dd2
Procedure Summary: qHTS profiling for inhibitors of Plasmodium falciparum proliferation (AID 504749); further: nearly all actives have a fitted effect of over 60% in size
Measurement Setup: P. falciparum in erythrocytes, SYBR Green DNA, 72 h; series mostly up to 28.7 µM
Method: NIH National Institute of Allergy and Infectious Diseases [NIAID] NIH Chemical Genomics Center [NCGC] […] Because mature erythrocytes lack DNA, only Plasmodium-derived DNA is detected. NCGC Assay Protocol Summary: The SYBR Green viability assay was adapted from a method described previously (Plouffe et al., 2008). […] The following morning, fluorescence intensity at 485(14) nm excitation and 535(25) nm emission wavelengths was measured on an EnVision (Perkin Elmer) plate reader. […]
Records with an inconclusive call do not appear. The source made the active and inactive calls. Calls come from the whole dose curve; as a rule, active = well fitted inhibition curve with a large enough effect; inconclusive = small, poorly fitted or top-dose-only effect; inactive = flat fitted curve, though single readings scatter.
Response enum: active, inactive

Study these solved cases before continuing.
# Compound, Target System, Class Label
measured = [
    ("O=S1(=O)c2cccc3cccc(c23)N1CCCN1CCN(c2ccc(F)cc2)CC1", "Dd2", "inactive"),
    ("OC(CCN1CCCCC1)(c1ccccc1)c1ccccc1", "Dd2", "active"),
    ("c1ccc(CNCCNCc2ccccc2)cc1", "Dd2", "active"),
    ("O=C1CCC(c2ccc(-n3ccnc3)cc2)=NN1", "Dd2", "inactive"),
    ("NC(=O)C(=O)N/N=C/c1ccc([N+](=O)[O-])o1", "Dd2", "inactive"),
]

Query :: Recorded test call requested for `CCOC(=O)c1cccc(N)c1`
Result :: inactive

Query :: What about `CCCCCCCCCCCCCCCC[N+](C)(C)CC` ?
Result :: active

Query :: What about `CC(C)(C)CC(C)(C)c1ccc(OCCOCC[N+](C)(C)Cc2ccccc2)cc1` ?
Result :: active

Query :: What about `N[C@H](CO)C(=O)O` ?
Result :: inactive

Query :: What about `CCN(CC)C(=O)N1CCN(C)CC1` ?
Result :: inactive

Query :: What about `Clc1ccc2c(c1)CCc1cccnc1C2=C1CCNCC1` ?
Result :: active

Query :: What about Cc1c(F)c(N2CCNC(C)C2)cc2c1c(=O)c(C(=O)O)cn2C1CC1 (stereo not given) ?
Result :: inactive

Query :: What about `O=c1ccc2ccccc2o1` ?
Result :: inactive

Query :: What about `CCOc1ccc2nc3cc(N)ccc3c(N)c2c1` ?
Result :: active

Query :: What about CN1C2CCC1CC(OC(=O)c1c[nH]c3ccccc13)C2 (stereo not given) ?
Result :: inactive
